Values were extracted from patent US10421754B2.

system: PC-9; experiment: In vitro cell experiment (MTT), PC-9; type: cell-based; conditions: 72 h, human non-small-cell lung carcinoma cells (EGFR1 19 exon mutation)
assay.readout: IC50 (nM)
Just the number please, in nM, no unit attached.

Solved entries (count: 5):
# compound, IC50 [nM]
data = [
    ("COc1cc2c(Nc3ccc(Br)cc3F)ncnc2cc1OCC1CCN(C)CC1 [Vandetanib, reference compound]", 14.9),
    ("COc1cc2c(Nc3ccc(Br)cc3F)ncnc2cc1OCCCN1CCCCC1 [Compound 45, reference compound]", 18.7),
    ("COc1cc2c(Nc3ccc(Cl)cc3F)ncnc2cc1OCCCN1CCCC1 [Compound 44, reference compound]", 16.8),
    ("COc1cc2c(Nc3ccc(F)c(Cl)c3)ncnc2cc1OCCCN1CCCC1 [Compound 39]", 6.6),
    ("COc1cc2c(Nc3ccc(Br)cc3F)ncnc2cc1OCCCCC(N)=O [Compound 33]", 8.3),
]

stdin: Fill in reported IC50 for this entry: COc1cc2c(Nc3ccc(Br)cc3F)ncnc2cc1OCCCN(C)C [Compound 29]
stdout: 7.1

stdin: Hello, please tell me recorded IC50 for this one: COc1cc2c(Nc3ccc(F)c(Cl)c3)ncnc2cc1OCCCCN1CCCC1 [Compound 40]
stdout: 7.8

stdin: Return the recorded IC50 value; entry: COc1cc2c(Nc3ccc(F)c(Cl)c3)ncnc2cc1OCCCCN(C)C [Compound 37]
stdout: 8.7

---

// values below are pIC50; system is AXL (Homo sapiens, UniProt P30530)
Sequence (P30530 473-894): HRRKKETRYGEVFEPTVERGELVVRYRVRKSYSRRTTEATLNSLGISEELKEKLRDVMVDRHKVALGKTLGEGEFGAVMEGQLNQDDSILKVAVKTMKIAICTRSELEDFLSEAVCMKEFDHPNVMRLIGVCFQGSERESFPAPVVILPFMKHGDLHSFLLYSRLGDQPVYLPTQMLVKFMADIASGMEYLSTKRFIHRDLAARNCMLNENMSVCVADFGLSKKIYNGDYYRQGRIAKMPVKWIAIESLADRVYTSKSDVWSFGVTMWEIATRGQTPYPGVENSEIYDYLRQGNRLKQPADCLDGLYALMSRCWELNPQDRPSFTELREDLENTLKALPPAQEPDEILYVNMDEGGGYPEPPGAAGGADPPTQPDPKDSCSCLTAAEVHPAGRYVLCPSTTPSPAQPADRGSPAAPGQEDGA
Would you please state pIC50, meaning minus log10 of the concentration in mol/L, as a bare number?

# chem.smiles, assay.readout, quantitative.readout
rows = [
    ("COc1cc2c(Nc3ccc(F)c(Cl)c3)ncnc2cc1OCCCN1CCCC1", "pIC50", 5.69),
]

stdin: Quote AXL (Homo sapiens, UniProt P30530) pIC50 for entry "COc1cc2c(Nc3ccc(F)c(Cl)c3)ncnc2cc1OCCCN(C)C" .
stdout: 5.67

stdin: Under AXL (Homo sapiens, UniProt P30530): report pIC50 of "COc1cc2c(Nc3ccc(Br)cc3F)ncnc2cc1OCCCCN1CCCC1" .
stdout: 5.70

stdin: Send back AXL (Homo sapiens, UniProt P30530) pIC50 of "COc1cc2c(Nc3ccc(F)c(Cl)c3)ncnc2cc1OCCCCN1CCCC1" only.
stdout: 5.70

stdin: # return pIC50 of "COc1cc2c(Nc3ccc(Br)cc3F)ncnc2cc1OCCCCN(C)C" (system: AXL (Homo sapiens, UniProt P30530))
stdout: 5.83

---

tested on: HT-29; assay: In vitro cell experiment (MTT), HT-29; type: cell-based; conditions: 72 h, human colon carcinoma cells (expressing both c-KIT and PDGFR)
assay.readout: IC50 (µM)
Reply numerically in µM, unit not repeated.

// known answers, use as guide
# compound, subject.of.test, unit.descriptor, quantitative.readout
measured = [
    ("COc1cc2c(Nc3ccc(Br)cc3F)ncnc2cc1OCCCN1CCCCC1 [Compound 45, reference compound]", "HT-29", "µM", 3.41),
    ("COc1cc2c(Nc3ccc(Br)cc3F)ncnc2cc1OCCCCN(C)C [Compound 28]", "HT-29", "µM", 1.47),
    ("COc1cc2c(Nc3ccc(F)c(Cl)c3)ncnc2cc1OCCCCN1CCCC1 [Compound 40]", "HT-29", "µM", 2.33),
]

--- query ---
stdin: Respond only with IC50 recorded for COc1cc2c(Nc3ccc(Br)cc3F)ncnc2cc1OCC1CCN(C)CC1 [Vandetanib, reference compound]
stdout: 3.23

---

// RET (Homo sapiens) IC50 records
Unit nM implied. Number only.

In the examples that follow, each entry is paired with its recorded IC50.
# compound, unit.descriptor, IC50
rows = [
    ("COc1cc2c(Nc3ccc(Br)cc3F)ncnc2cc1OCCCN1CCCCC1 [Compound 45, reference compound]", "nM", 27.5),
    ("COc1cc2c(Nc3ccc(Br)cc3F)ncnc2cc1OCCCCN1CCCC1", "nM", 14.6),
    ("COc1cc2c(Nc3ccc(F)c(Cl)c3)ncnc2cc1OCCCN1CCCC1", "nM", 10.2),
    ("COc1cc2c(Nc3ccc(Br)cc3F)ncnc2cc1OCCCN(C)C", "nM", 13.4),
    ("COc1cc2c(Nc3ccc(Br)cc3F)ncnc2cc1OCCCCN(C)C", "nM", 13.5),
    ("COc1cc2c(Nc3ccc(F)c(Cl)c3)ncnc2cc1OCCCCN(C)C", "nM", 15.8),
]

stdin: Give IC50; test system RET (Homo sapiens); compound "COc1cc2c(Nc3ccc(Br)cc3F)ncnc2cc1OCCCN1CCCC1"
stdout: 9.1

stdin: State measured IC50 of the compound "COc1cc2c(Nc3ccc(F)c(Cl)c3)ncnc2cc1OCCCCN1CCCC1" with RET (Homo sapiens).
Sequence (P07949 29-1114, species assumed): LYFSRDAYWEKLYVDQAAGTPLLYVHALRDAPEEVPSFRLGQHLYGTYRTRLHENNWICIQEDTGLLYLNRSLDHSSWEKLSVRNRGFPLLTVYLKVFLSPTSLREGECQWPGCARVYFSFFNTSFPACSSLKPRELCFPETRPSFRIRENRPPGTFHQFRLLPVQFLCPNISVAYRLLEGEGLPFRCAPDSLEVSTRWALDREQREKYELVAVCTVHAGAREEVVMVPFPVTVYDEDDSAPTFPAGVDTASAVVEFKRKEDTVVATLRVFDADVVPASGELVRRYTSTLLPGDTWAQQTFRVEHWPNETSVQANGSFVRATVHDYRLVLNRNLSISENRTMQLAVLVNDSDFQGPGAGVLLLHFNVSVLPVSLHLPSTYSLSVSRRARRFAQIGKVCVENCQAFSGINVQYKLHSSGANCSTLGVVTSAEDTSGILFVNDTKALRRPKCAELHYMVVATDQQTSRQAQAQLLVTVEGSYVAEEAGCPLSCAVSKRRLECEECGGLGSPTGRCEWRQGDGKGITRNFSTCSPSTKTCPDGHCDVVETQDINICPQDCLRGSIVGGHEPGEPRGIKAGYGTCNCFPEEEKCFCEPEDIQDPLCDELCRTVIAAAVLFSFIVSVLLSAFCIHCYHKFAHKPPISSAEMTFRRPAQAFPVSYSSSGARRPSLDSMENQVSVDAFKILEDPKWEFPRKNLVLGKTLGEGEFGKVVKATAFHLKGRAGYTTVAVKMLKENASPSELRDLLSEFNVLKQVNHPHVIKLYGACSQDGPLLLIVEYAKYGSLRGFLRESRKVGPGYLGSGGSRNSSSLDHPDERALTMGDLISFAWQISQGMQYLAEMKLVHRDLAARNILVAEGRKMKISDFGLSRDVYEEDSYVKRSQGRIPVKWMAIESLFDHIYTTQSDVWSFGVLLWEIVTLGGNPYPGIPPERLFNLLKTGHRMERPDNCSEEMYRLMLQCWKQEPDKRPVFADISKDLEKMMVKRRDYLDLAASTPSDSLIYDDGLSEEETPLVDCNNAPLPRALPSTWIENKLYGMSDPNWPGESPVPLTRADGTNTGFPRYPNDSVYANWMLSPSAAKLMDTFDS
stdout: 17.3

stdin: Return reported IC50 for target or system RET (Homo sapiens), item COc1cc2c(Nc3ccc(Cl)cc3F)ncnc2cc1OCCCN1CCCC1 [Compound 44, reference compound] .
stdout: 23.4

stdin: Write down measured IC50 (RET (Homo sapiens)) for this compound. "COc1cc2c(Nc3ccc(F)c(Cl)c3)ncnc2cc1OCCCN(C)C"
stdout: 19.8

---

test system: HCC827; experiment: In vitro cell experiment (MTT), HCC827; format: cell-based; conditions: 72 h, human non-small cell lung carcinoma (EGFR1 19 exon mutation)
assay.readout: pIC50
Please express pIC50 as -log10 of the molar concentration.

# molecule, subject.of.test, pIC50
records = [
    ("COc1cc2c(Nc3ccc(Br)cc3F)ncnc2cc1OCCCN1CCCCC1 [Compound 45, reference compound]", "HCC827", 8.01),
]

stdin: Tell me its pIC50 given COc1cc2c(Nc3ccc(Br)cc3F)ncnc2cc1OCCN1CCCC1 [Compound 2] as the entry.
stdout: 8.25

stdin: Find the measured pIC50 of COc1cc2c(Nc3ccc(Br)cc3F)ncnc2cc1OCCc1csc(C)n1 [Compound 26] and report it.
stdout: 8.85

---

Reported pIC50 values are given for each entry in this list.
biological target: EGFR (Homo sapiens, UniProt P00533)
Sequence (P00533 25-1210): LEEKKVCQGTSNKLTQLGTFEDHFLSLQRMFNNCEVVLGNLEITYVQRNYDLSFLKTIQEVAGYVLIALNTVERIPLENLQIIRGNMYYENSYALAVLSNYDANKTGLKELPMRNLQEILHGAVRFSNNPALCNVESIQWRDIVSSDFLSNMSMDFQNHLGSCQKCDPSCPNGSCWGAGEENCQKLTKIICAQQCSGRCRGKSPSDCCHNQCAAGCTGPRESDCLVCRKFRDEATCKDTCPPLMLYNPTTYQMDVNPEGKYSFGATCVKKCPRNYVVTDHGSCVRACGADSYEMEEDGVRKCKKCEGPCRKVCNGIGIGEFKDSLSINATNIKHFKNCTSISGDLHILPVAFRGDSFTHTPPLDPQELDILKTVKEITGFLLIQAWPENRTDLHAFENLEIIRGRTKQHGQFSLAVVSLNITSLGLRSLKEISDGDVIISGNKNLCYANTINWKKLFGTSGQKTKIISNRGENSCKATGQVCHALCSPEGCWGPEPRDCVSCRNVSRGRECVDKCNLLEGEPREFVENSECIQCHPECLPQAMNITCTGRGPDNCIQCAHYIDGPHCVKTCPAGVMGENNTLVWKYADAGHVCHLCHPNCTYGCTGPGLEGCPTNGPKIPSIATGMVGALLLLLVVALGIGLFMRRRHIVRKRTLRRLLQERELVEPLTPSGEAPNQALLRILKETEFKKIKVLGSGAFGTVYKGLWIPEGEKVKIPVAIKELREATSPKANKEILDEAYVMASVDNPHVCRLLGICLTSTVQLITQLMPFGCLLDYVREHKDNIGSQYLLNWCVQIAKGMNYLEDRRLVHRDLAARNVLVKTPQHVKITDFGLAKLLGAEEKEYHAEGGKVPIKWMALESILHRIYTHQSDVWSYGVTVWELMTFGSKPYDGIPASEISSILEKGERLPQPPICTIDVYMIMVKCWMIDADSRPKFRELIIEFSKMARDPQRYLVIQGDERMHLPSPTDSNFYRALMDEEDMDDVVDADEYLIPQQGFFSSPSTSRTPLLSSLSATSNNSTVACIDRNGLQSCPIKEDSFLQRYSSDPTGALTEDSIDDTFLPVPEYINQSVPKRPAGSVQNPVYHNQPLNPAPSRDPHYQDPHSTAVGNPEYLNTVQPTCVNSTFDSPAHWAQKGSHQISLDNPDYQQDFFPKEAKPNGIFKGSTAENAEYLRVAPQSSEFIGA
Notebook: values listed as pIC50 are -log10 of the concentration (mol/L).

Reference set (8 entries):
# molecule, quantitative.readout
data = [
    ("COc1cc2c(Nc3ccc(F)c(Cl)c3)ncnc2cc1OCCCCN1CCCC1 [Compound 40]", 6.95),
    ("COc1cc2c(Nc3ccc(F)c(Cl)c3)ncnc2cc1OCCCN1CCCC1 [Compound 39]", 6.92),
    ("COc1cc2c(Nc3ccc(Br)cc3F)ncnc2cc1OCCCCN(C)C [Compound 28]", 7.04),
    ("COc1cc2c(Nc3ccc(F)c(Cl)c3)ncnc2cc1OCCCCN(C)C [Compound 37]", 7.01),
    ("COc1cc2c(Nc3ccc(Br)cc3F)ncnc2cc1OCCCN1CCCCC1 [Compound 45, reference compound]", 6.80),
    ("COc1cc2c(Nc3ccc(Br)cc3F)ncnc2cc1OCCCCN1CCCC1 [Compound 30]", 6.93),
    ("COc1cc2c(Nc3ccc(Br)cc3F)ncnc2cc1OCCCN1CCCC1 [Compound 19]", 7.18),
    ("COc1cc2c(Nc3ccc(F)c(Cl)c3)ncnc2cc1OCCCN(C)C [Compound 38]", 7.00),
]

Field: next molecule
stdin: Report its pIC50 with EGFR (Homo sapiens, UniProt P00533) as the test system: COc1cc2c(Nc3ccc(Br)cc3F)ncnc2cc1OCCCN(C)C [Compound 29]
stdout: 6.90

---

tested on: SK-OV-3; experiment: In vitro cell experiment (MTT), SK-OV-3; assay type: cell-based; conditions: 72 h, human ovarian carcinoma cells (EGFR2 overexpressing)
Listing of entries alongside the reported IC50.
// note: answer is a bare numeric in µM

# molecule, unit.descriptor, IC50
data = [
    ("COc1cc2c(Nc3ccc(Br)cc3F)ncnc2cc1OCCCn1ccnc1", "µM", 2.88),
    ("COc1cc2c(Nc3ccc(Cl)cc3F)ncnc2cc1OCCCN1CCCC1 [Compound 44, reference compound]", "µM", 4.03),
    ("COc1cc2c(Nc3ccc(Br)cc3F)ncnc2cc1OCCn1c(C)nc2ccccc21", "µM", 2.77),
    ("COc1cc2c(Nc3ccc(Br)cc3F)ncnc2cc1OCCCN1CCCC1", "µM", 1.96),
    ("COc1cc2c(Nc3ccc(F)c(Cl)c3)ncnc2cc1OCCCCN1CCCC1", "µM", 1.19),
    ("COc1cc2c(Nc3ccc(F)c(Cl)c3)ncnc2cc1OCCCCCC(N)=O", "µM", 2.45),
]

stdin: Give IC50 for "COc1cc2c(Nc3ccc(Br)cc3F)ncnc2cc1OCCCC(N)=O"
stdout: 3.37

stdin: Dear colleague, please send me the reported IC50 for "COc1cc2c(Nc3ccc(Br)cc3F)ncnc2cc1OCCCCN1CCCC1" when you can.
stdout: 2.5

stdin: Look up and report measured IC50 for this entry: "COc1cc2c(Nc3ccc(Br)cc3F)ncnc2cc1OCc1cccc(C#N)c1"
stdout: 2.02
